# Tgt: 14C-HIgG (human)
# Assay Summary: second round of secondary screening, batch, non-competitive (PBS)
No end group written: not given here.
With a cut-off of 90%, any Unbound strictly below it is called yes (1); any Unbound meeting it or above is called no (0).

Does the reported Unbound of HVHYYWA-{Toyopearl AF‑Amino‑650 resin} stay below 90%?
yes (1)

Does the reported Unbound of HWGPTKA-{Toyopearl AF‑Amino‑650 resin} stay below 90%?
yes (1)

Does the reported Unbound of KGEA-{Toyopearl AF‑Amino‑650 resin} stay below 90%?
no (0)

Does the reported Unbound of HYFKFDA-{Toyopearl AF‑Amino‑650 resin} stay below 90%?
yes (1)
